Recorded values, source patent US20250154202A1.

Target: T1, biotinylated NbALFA (NanoTag) (biotinylated (site not stated))
T1 construct: Bought from NanoTag and captured on the SPR chip through biotin; also called NbALFA-nanobody; Nanobody
T1 sequence (VHH, as listed by the source): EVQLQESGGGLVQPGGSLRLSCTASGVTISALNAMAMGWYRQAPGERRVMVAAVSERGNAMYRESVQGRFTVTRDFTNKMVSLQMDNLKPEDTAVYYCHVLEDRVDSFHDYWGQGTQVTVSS
Experiment: SPR, Biacore T200, biotinylated NbALFA captured on Biotin CAPture chip, peptide as analyte, multi-cycle kinetics, 1:1 model, 25 C
Bridge positions count the residues as written; N and C are the ends. Square brackets hold non-standard residues; d marks the D form. Ends that are not written are not given here.
Label true when koff < 0.0006 s⁻¹; otherwise false.

BINDER: Ac-SRLEDELRKRLTE-NH2 (lactam 5-9; SMILES CC(=O)N[C@@H](CO)C(=O)N[C@@H](CCCNC(=N)N)C(=O)N[C@@H](CC(C)C)C(=O)N[C@@H](CCC(=O)O)C(=O)N[C@H]1CC(=O)NCCCC[C@@H](C(=O)N[C@@H](CCCNC(=N)N)C(=O)N[C@@H](CC(C)C)C(=O)N[C@H](C(=O)N[C@@H](CCC(=O)O)C(N)=O)[C@@H](C)O)NC(=O)[C@H](CCCNC(=N)N)NC(=O)[C@H](CC(C)C)NC(=O)[C@H](CCC(=O)O)NC1=O, Cyclic ALFA tag; also called SD15196) [Ac-Ser-Arg-Leu-Glu-(cyclo5)Asp-Glu-Leu-Arg-(cyclo9)Lys-Arg-Leu-Thr-Glu-NH2]
CAT: false

BINDER: Ac-PSRLEKELRERLTE-NH2 (lactam 6-10; SMILES CC(=O)N1CCC[C@H]1C(=O)N[C@@H](CO)C(=O)N[C@@H](CCCNC(=N)N)C(=O)N[C@@H](CC(C)C)C(=O)N[C@@H](CCC(=O)O)C(=O)N[C@H]1CCCCNC(=O)CC[C@@H](C(=O)N[C@@H](CCCNC(=N)N)C(=O)N[C@@H](CC(C)C)C(=O)N[C@H](C(=O)N[C@@H](CCC(=O)O)C(N)=O)[C@@H](C)O)NC(=O)[C@H](CCCNC(=N)N)NC(=O)[C@H](CC(C)C)NC(=O)[C@H](CCC(=O)O)NC1=O, Cyclic ALFA tag; also called SD15805) [Ac-Pro-Ser-Arg-Leu-Glu-(cyclo6)Lys-Glu-Leu-Arg-(cyclo10)Glu-Arg-Leu-Thr-Glu-NH2]
CAT: false

BINDER: Ac-PSRLEEELRKRLTE-NH2 (lactam 6-10; SMILES CC(=O)N1CCC[C@H]1C(=O)N[C@@H](CO)C(=O)N[C@@H](CCCNC(=N)N)C(=O)N[C@@H](CC(C)C)C(=O)N[C@@H](CCC(=O)O)C(=O)N[C@H]1CCC(=O)NCCCC[C@@H](C(=O)N[C@@H](CCCNC(=N)N)C(=O)N[C@@H](CC(C)C)C(=O)N[C@H](C(=O)N[C@@H](CCC(=O)O)C(N)=O)[C@@H](C)O)NC(=O)[C@H](CCCNC(=N)N)NC(=O)[C@H](CC(C)C)NC(=O)[C@H](CCC(=O)O)NC1=O, Cyclic ALFA tag; also called SD15341) [Ac-Pro-Ser-Arg-Leu-Glu-(cyclo6)Glu-Glu-Leu-Arg-(cyclo10)Lys-Arg-Leu-Thr-Glu-NH2]
CAT: true

BINDER: Ac-PSRLEEELKRRLTE-NH2 (lactam 5-9; SMILES CC(=O)N1CCC[C@H]1C(=O)N[C@@H](CO)C(=O)N[C@@H](CCCNC(=N)N)C(=O)N[C@@H](CC(C)C)C(=O)N[C@H]1CCC(=O)NCCCC[C@@H](C(=O)N[C@@H](CCCNC(=N)N)C(=O)N[C@@H](CCCNC(=N)N)C(=O)N[C@@H](CC(C)C)C(=O)N[C@H](C(=O)N[C@@H](CCC(=O)O)C(N)=O)[C@@H](C)O)NC(=O)[C@H](CC(C)C)NC(=O)[C@H](CCC(=O)O)NC(=O)[C@H](CCC(=O)O)NC1=O, Cyclic ALFA tag; also called SD15806) [Ac-Pro-Ser-Arg-Leu-(cyclo5)Glu-Glu-Glu-Leu-(cyclo9)Lys-Arg-Arg-Leu-Thr-Glu-NH2]
CAT: false

BINDER: Ac-SRLEEELKRRLTE-NH2 (lactam 5-8; SMILES CC(=O)N[C@@H](CO)C(=O)N[C@@H](CCCNC(=N)N)C(=O)N[C@@H](CC(C)C)C(=O)N[C@@H](CCC(=O)O)C(=O)N[C@H]1CCC(=O)NCCCC[C@@H](C(=O)N[C@@H](CCCNC(=N)N)C(=O)N[C@@H](CCCNC(=N)N)C(=O)N[C@@H](CC(C)C)C(=O)N[C@H](C(=O)N[C@@H](CCC(=O)O)C(N)=O)[C@@H](C)O)NC(=O)[C@H](CC(C)C)NC(=O)[C@H](CCC(=O)O)NC1=O, Cyclic ALFA tag; also called SD15192) [Ac-Ser-Arg-Leu-Glu-(cyclo5)Glu-Glu-Leu-(cyclo8)Lys-Arg-Arg-Leu-Thr-Glu-NH2]
CAT: true

*Q* Could you please tell me whether koff recorded for SRLEEELRKRLTE (lactam 5-9; not fully specified (N-terminus, C-terminus), also called SD15194) [Ac-Ser-Arg-Leu-Glu-(cyclo5)Glu-Glu-Leu-Arg-(cyclo9)Lys-Arg-Leu-Thr-Glu-NH2] is less than 0.0006 s⁻¹?
*A* false

*Q* Does Ac-PSRLEEELR[dK]RLTE-NH2 (lactam 6-10; SMILES CC(=O)N1CCC[C@H]1C(=O)N[C@@H](CO)C(=O)N[C@@H](CCCNC(=N)N)C(=O)N[C@@H](CC(C)C)C(=O)N[C@@H](CCC(=O)O)C(=O)N[C@H]1CCC(=O)NCCCC[C@H](C(=O)N[C@@H](CCCNC(=N)N)C(=O)N[C@@H](CC(C)C)C(=O)N[C@H](C(=O)N[C@@H](CCC(=O)O)C(N)=O)[C@@H](C)O)NC(=O)[C@H](CCCNC(=N)N)NC(=O)[C@H](CC(C)C)NC(=O)[C@H](CCC(=O)O)NC1=O, Cyclic ALFA tag; also called SD15808) [Ac-Pro-Ser-Arg-Leu-Glu-(cyclo6)Glu-Glu-Leu-Arg-(cyclo10)dLys-Arg-Leu-Thr-Glu-NH2] have koff strictly under 0.0006 s⁻¹?
*A* true

*Q* Consider Ac-SRLEEELRKRLTE-NH2 (lactam 9-13; SMILES CC(=O)N[C@@H](CO)C(=O)N[C@@H](CCCNC(=N)N)C(=O)N[C@@H](CC(C)C)C(=O)N[C@@H](CCC(=O)O)C(=O)N[C@@H](CCC(=O)O)C(=O)N[C@@H](CCC(=O)O)C(=O)N[C@@H](CC(C)C)C(=O)N[C@@H](CCCNC(=N)N)C(=O)N[C@H]1CCCCNC(=O)CC[C@@H](C(N)=O)NC(=O)[C@H]([C@@H](C)O)NC(=O)[C@H](CC(C)C)NC(=O)[C@H](CCCNC(=N)N)NC1=O, Cyclic ALFA tag; also called SD15193) [Ac-Ser-Arg-Leu-Glu-Glu-Glu-Leu-Arg-(cyclo9)Lys-Arg-Leu-Thr-(cyclo13)Glu-NH2] . Does its koff lie strictly below 0.0006 s⁻¹?
*A* false
